// reported zone of inhibition at 500 µg/mL for each item listed
Tested on: Escherichia coli (E. coli), multidrug resistant clinical isolate
Assay: agar well diffusion assay
Assay type: cell-based
Conditions: 24 h, 500 µg/mL of tested compound
Enter your answer as a number in mm; do not include the unit.

O=C1C(Cl)C(c2ccncc2)N1c1nc(-c2cc(Cl)cc3c2-c2ccc(Cl)cc2C3)cs1 (centres unmarked): 27
COc1cc(C2C(Cl)C(=O)N2c2nc(-c3cc(Cl)cc4c3-c3ccc(Cl)cc3C4)cs2)ccc1O (centres unmarked): 22
COc1ccc(C2C(Cl)C(=O)N2c2nc(-c3cc(Cl)cc4c3-c3ccc(Cl)cc3C4)cs2)cc1 (centres unmarked): 12

Ask: Which zone of inhibition at 500 µg/mL value belongs to O=C1C(Cl)C(c2ccccc2)N1c1nc(-c2cc(Cl)cc3c2-c2ccc(Cl)cc2C3)cs1 (centres unmarked) ?
Result: 13

Ask: Try this molecule too: O=C1C(Cl)C(c2cccs2)N1c1nc(-c2cc(Cl)cc3c2-c2ccc(Cl)cc2C3)cs1 (centres unmarked)
Result: 14

Ask: // next record O=C1CSC(c2ccc[nH]2)N1c1nc(-c2cc(Cl)cc3c2-c2ccc(Cl)cc2C3)cs1 (centres unmarked)
Result: 6

Ask: Same for O=C1C(Cl)C(C=Cc2ccccc2)N1c1nc(-c2cc(Cl)cc3c2-c2ccc(Cl)cc2C3)cs1 (centres unmarked)
Result: 12

Ask: // next record O=C1C(Cl)C(c2ccnc3ccccc23)N1c1nc(-c2cc(Cl)cc3c2-c2ccc(Cl)cc2C3)cs1 (centres unmarked)
Result: 19

###

Some compounds, each annotated with its measured melting point.

Example entries and their recorded answers appear below.
O=C1C(Cl)C(c2ccc[nH]2)N1c1nc(-c2cc(Cl)cc3c2-c2ccc(Cl)cc2C3)cs1 (stereo not shown): 105 to 107 °C
CN(C)c1ccc(C2SCC(=O)N2c2nc(-c3cc(Cl)cc4c3-c3ccc(Cl)cc3C4)cs2)cc1 (stereo not shown): 94 to 96 °C
O=C1C(Cl)C(c2ccncc2)N1c1nc(-c2cc(Cl)cc3c2-c2ccc(Cl)cc2C3)cs1 (stereo not shown): 249 to 250 °C

// switching to the query compound
Ask: Could you tell me which melting point is on file for O=C1C(Cl)C(C=Cc2ccccc2)N1c1nc(-c2cc(Cl)cc3c2-c2ccc(Cl)cc2C3)cs1 (stereo not shown) ?
Result: 110 to 112 °C

###

Recorded apoptotic cell death (of total cell number) values for a group of compounds are listed next.
Test system: A549 cells
Assay: FACS analysis, Annexin V and PI staining
Format: cell-based, human
Details: 24 h, 5g 500, 6c 85, 6d 117, 6k 200 µg/mL
Experimental: To uncover the mechanism of cell death for the compounds 5h, 6c, 6d and 6k on WI-38, A549, and MDA-MB-231 cells; Annexin v and propedium Iodide (PI) were used. In brief, WI-38, A549, MDA-MB-231 cells were cultured in 10 tissue culture dish with initial number 4 × 10^5 cell/Ml in RPMI growth media. […] Finally, 400 μL of 1X Annexin v binding buffer were added to each tube and analyzed using Becton-Dickinson FACS Caliber.
Field format: number, assumed %, no unit text.

As a guide, the following entries are already answered.
O=C(O)c1ccc(C2SCC(=O)N2c2nc(-c3cc(Cl)cc4c3-c3ccc(Cl)cc3C4)cs2)cc1 (stereo not shown): 1.25
O=C1C(Cl)C(c2cccs2)N1c1nc(-c2cc(Cl)cc3c2-c2ccc(Cl)cc2C3)cs1 (stereo not shown): 32.67
O=C1C(Cl)C(c2ccc(Br)cc2)N1c1nc(-c2cc(Cl)cc3c2-c2ccc(Cl)cc2C3)cs1 (stereo not shown): 36.3

Lab note: next compound to report on.
Ask: Value wanted: apoptotic cell death (of total cell number) (A549 cells) of entry O=C1C(Cl)C(c2ccc(Cl)cc2)N1c1nc(-c2cc(Cl)cc3c2-c2ccc(Cl)cc2C3)cs1 (stereo not shown)
Result: 27.32
